Test method notes: clinical
Details: human, in vivo, iv, 1 mg, Cmax (range)
Observable: Cmax

Could you tell me which Cmax is on file for `NCCCC[C@H](NC(=O)[C@@H]1CCCN1C(=O)[C@@H]1CSSC[C@H](N)C(=O)N[C@@H](Cc2ccc(O)cc2)C(=O)N[C@@H](Cc2ccccc2)C(=O)N[C@@H](CCC(N)=O)C(=O)N[C@@H](CC(N)=O)C(=O)N1)C(=O)NCC(N)=O` ?
0.4 to 3.36 ng/mL

###

Test method notes: Pharmacokinetic modeling with sparse PK samples from 69 patients with HRS-1
Details: human, in vivo, iv, 1 mg, mean AUC24h, 1 mg dose of terlipressin acetate IV
Where a SMILES comes first, the peptide text is derived from it. Bridges are numbered along the chain shown (N, C = ends).
Observable: AUC(0-t)

Could you tell me which AUC(0-t) is on file for NCCCC[C@H](NC(=O)[C@@H]1CCCN1C(=O)[C@@H]1CSSC[C@H](NC(=O)CNC(=O)CNC(=O)CN)C(=O)N[C@@H](Cc2ccc(O)cc2)C(=O)N[C@@H](Cc2ccccc2)C(=O)N[C@@H](CCC(N)=O)C(=O)N[C@@H](CC(N)=O)C(=O)N1)C(=O)NCC(N)=O [Terlipressin] (H-GGGCYFQNCPKG-NH2; disulfide 4-9 (inferred)) ?
~123 ng·h/mL
